Here the recorded IC50 is given for each entry.
system: HT-1197 cells; experiment: Cell-based assay: anti-proliferative activity, Cell Counting Kit-8, 72 hours (HT-1197, negative control without MELK expression); conditions: Homo sapiens, HT1197, 72 h, HT1197 cells (negative control), 72 hours
Write it as a number; the unit µM goes unstated.

{"columns": ["MOLECULE", "IC50 / µM"],
 "data": [
  ["CC(=O)c1cnc2ccc(-c3cc(Cl)c(O)c(Cl)c3)cc2c1Nc1cnc(C)c(CCN2CCCC2)c1", 25],
  ["NC1CCN(c2ccc(Nc3c(C(=O)C4CC4)cnc4ccc(-c5cc(Cl)c(O)c(Cl)c5)cc34)cn2)C1 (stereo not shown)", 1.2],
  ["CCCC(=O)c1cnc2ccc(-c3cc(Cl)c(O)c(Cl)c3)cc2c1Nc1ccc(N2CCNCC2)nc1", 10]
]}

# ---- query molecule ----
**Query** Answer with reported IC50 of COc1cc(-c2ccc3ncc(C(=O)C4CC4)c(Nc4ccc(N5CCCC(N)C5)nc4)c3c2)cc(Cl)c1O (stereo not shown)
**Result** 1.9

###

tested on: T47D cells; assay: Cell-based assay: anti-proliferative activity, Cell Counting Kit-8, 72 hours (T47D); settings: Homo sapiens, T47D, 72 h
MEASURED_METRIC: log10(IC50) (log10 of the value in µM)
Annotation: log10 of IC50, µM basis.

{"columns": ["MOLECULE", "log10(IC50)"],
 "data": [
  ["O=C(c1cnc2ccc(-c3cc(Cl)c(O)c(Cl)c3)cc2c1Nc1ccc(N2CCNCC2)nc1)C1CC1 [Example 409]", -1.13],
  ["CCC(=O)c1cnc2ccc(-c3cc(F)c(O)c(Cl)c3)cc2c1N[C@H]1CC[C@H](CN(C)C)CC1 [Example 714]", -1.27],
  ["CCC(=O)c1cnc2ccc(-c3cc(Cl)c(O)c(Cl)c3)cc2c1Nc1ccc(N2CCC[C@H](N)C2)nc1 [Example 934]", -1.85],
  ["COc1cc(-c2ccc3ncc(C(=O)C4CC4)c(NC4CCNCC4)c3c2)cc(Cl)c1O [Example 727]", -0.43],
  ["CCN(CC)C1CCC(Nc2c(C(=O)C3CCCC3)cnc3ccc(-c4cc(F)c(O)c(Cl)c4)cc23)CC1 (stereo not shown) [Example 386]", -0.39],
  ["COc1cc(-c2ccc3ncc(C(=O)C4CC4)c(Nc4ccc(CN5CCOCC5)cc4)c3c2)cc(Cl)c1O [Example 462]", -0.36]
]}

**Query** Answer with reported log10(IC50) of CC(=O)c1cnc2ccc(-c3cc(F)c(O)c(Cl)c3)cc2c1N[C@H]1CC[C@H](CCN(C)C)CC1 [Example 741]
**Result** -1.43

**Query** Answer with reported log10(IC50) of COc1cc(-c2ccc3ncc(C(=O)C4CC4)c(N[C@H]4CC[C@H](CN5CCC(N(C)C)C5)CC4)c3c2)cc(Cl)c1O (stereo partly shown) [Example 668]
**Result** 0.00

**Query** Answer with reported log10(IC50) of Nc1ccc(Nc2c(C(=O)C3CC3)cnc3ccc(-c4cc(F)c(O)c(Cl)c4)cc23)cn1 [Example 591]
**Result** -0.59

**Query** Answer with reported log10(IC50) of COc1cc(-c2ccc3ncc(C(=O)C4CC4)c(N4CCN(C(=O)CN(C)C)CC4)c3c2)cc(Cl)c1O [Example 437]
**Result** -0.55

**Query** Answer with reported log10(IC50) of COc1cc(-c2ccc3ncc(C(=O)C4CC4)c(Nc4ccc(NC5CCNC5)nc4)c3c2)cc(Cl)c1O (stereo not shown) [Example 665]
**Result** -0.80

**Query** Answer with reported log10(IC50) of COc1cc(-c2ccc3ncc(C(=O)C4CC4)c(C4=CCN(C(=O)CN(C)C)CC4)c3c2)cc(Cl)c1O [Example 521]
**Result** -0.66

###

Here the recorded IC50 is given for each entry.
target: MELK (Homo sapiens); assay: Kinase assay: MELK activity, phosphorylation of FITC-labeled histone H3 peptide measured by IMAP fluorescence polarization; format: biochemical; conditions: MELK kinase assay, IMAP fluorescence polarization, 50 micro-M ATP; read-out: IC50 (μM) (kinase assay)
Sequence (Q14680 whole entry, looked up): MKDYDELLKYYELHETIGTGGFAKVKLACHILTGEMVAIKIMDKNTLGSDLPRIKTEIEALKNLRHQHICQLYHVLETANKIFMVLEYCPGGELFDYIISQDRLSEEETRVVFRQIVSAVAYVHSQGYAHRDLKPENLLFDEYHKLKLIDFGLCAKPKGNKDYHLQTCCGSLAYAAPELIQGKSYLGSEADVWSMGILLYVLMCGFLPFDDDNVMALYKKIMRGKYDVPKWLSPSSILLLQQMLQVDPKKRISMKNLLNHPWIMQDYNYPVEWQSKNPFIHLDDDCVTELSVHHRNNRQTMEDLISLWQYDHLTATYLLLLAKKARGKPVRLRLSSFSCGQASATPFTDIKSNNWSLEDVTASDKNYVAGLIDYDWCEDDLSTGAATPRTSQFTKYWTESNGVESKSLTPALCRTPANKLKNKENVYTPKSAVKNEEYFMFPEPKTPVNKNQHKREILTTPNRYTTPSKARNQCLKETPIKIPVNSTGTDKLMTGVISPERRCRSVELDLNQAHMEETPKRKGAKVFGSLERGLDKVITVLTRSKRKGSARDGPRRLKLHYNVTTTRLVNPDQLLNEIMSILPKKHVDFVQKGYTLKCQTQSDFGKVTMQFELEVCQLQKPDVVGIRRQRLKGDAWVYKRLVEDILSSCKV
Where a name gives a salt, the structure may show the parent alone.

{"columns": ["COMPOUND", "SYSTEM_TESTED", "IC50"],
 "data": [
  ["CCC(=O)c1cnc2ccc(-c3cc(Cl)c(O)c(Cl)c3)cc2c1N[C@H]1CC[C@H](CN2CCCC2)CC1", "MELK (Homo sapiens)", "0.0016 µM"],
  ["CC(=O)c1cnc2ccc(-c3cn[nH]c3)cc2c1N[C@H]1CC[C@H](CN(C)C)CC1 [Example 912, hydrochloride]", "MELK (Homo sapiens)", "0.074 µM"],
  ["CN(C)[C@H]1CC[C@H](Nc2c(C(=O)C3CC3)cnc3ccc(-c4cc(Cl)c(O)c(Cl)c4)cc23)CC1 [Example 941, dihydrobromide]", "MELK (Homo sapiens)", "0.0016 µM"],
  ["CC(=O)c1c(C)nc2ccc(-c3cc(F)c(O)c(Cl)c3)cc2c1Nc1ccc(N2CCN(C)CC2)nc1 [Example 837, hydrochloride]", "MELK (Homo sapiens)", "0.54 µM"],
  ["CN1CCN(CCc2cccc(Nc3c(C(=O)C4CC4)cnc4ccc(-c5cc(F)c(O)c(Cl)c5)cc34)c2)CC1", "MELK (Homo sapiens)", "0.017 µM"],
  ["CC(=O)c1cnc2ccc(-c3ccc4nc[nH]c4c3)cc2c1Nc1cnn(C2CCN(C)CC2)c1 [Example 895, hydrochloride]", "MELK (Homo sapiens)", "0.065 µM"],
  ["CC(=O)c1cnc2ccc(-c3ccc4nc[nH]c4c3)cc2c1Nc1cccc(CCN2CCCC2)c1 [Example 896, hydrochloride]", "MELK (Homo sapiens)", "0.22 µM"],
  ["CN(C)CCOc1ccc(Nc2c(S(C)(=O)=O)cnc3ccc(-c4cc(Cl)c(O)c(Cl)c4)cc23)cn1 [Example 884, hydrochloride]", "MELK (Homo sapiens)", "0.0035 µM"]
]}

**Query** Answer with reported IC50 of CC(=O)c1cnc2ccc(-c3ccc4cc(O)ccc4c3)cc2c1N[C@H]1CC[C@H](CN(C)C)CC1 [Example 929, hydrochloride]
**Result** 0.064 µM

**Query** Answer with reported IC50 of CN(C)CCN1CCC(Nc2c(C(=O)C3CC3)cnc3ccc(-c4cc(Cl)c(O)c(Cl)c4)cc23)CC1 [Example 820]
**Result** 0.0018 µM

**Query** Answer with reported IC50 of CC(C)C(=O)c1cnc2ccc(-c3cc(F)c(O)c(F)c3)cc2c1N[C@H]1CC[C@H](N)CC1 [Example 938, hydrochloride]
**Result** 0.017 µM

**Query** Answer with reported IC50 of CC(=O)c1cnc2ccc(-c3cc(Cl)c(O)c(Cl)c3)cc2c1Nc1ccc(CN(C)C)cc1 [Example 942]
**Result** 0.0022 µM

###

biological target: MELK (Homo sapiens); test: Kinase assay: MELK activity, phosphorylation of FITC-labeled histone H3 peptide measured by IMAP fluorescence polarization; assay type: biochemical; conditions: 50 micro-M ATP, FITC-labeled histone H3 peptide substrate, IMAP fluorescence polarization; hydrobromide; read-out: IC50 (μM) (kinase assay)
Counter-ions that a name gives are not always drawn.
MEASURED_METRIC: IC50 (µM)
Write it as a number; the unit µM goes unstated.

**Query** Answer with reported IC50 of CC(=O)c1cnc2ccc(-c3cc(Cl)c(O)c(Cl)c3)cc2c1Nc1ccc(CN2CCCC2)cc1 [Example 416, hydrobromide]
**Result** 0.0032

###

test system: DU4475 cells; experiment: Cell-based assay: anti-proliferative activity, Cell Counting Kit-8, 72 hours (DU4475)
Where a name gives a salt, the structure may show the parent alone.
MEASURED_METRIC: IC50

**Query** Answer with reported IC50 of CC(=O)c1cnc2ccc(-c3cc(F)c(O)c(Cl)c3)cc2c1N[C@H]1CC[C@H](C(=O)N(C)C)CC1 [Example 870, hydrochloride]
**Result** 2.1 µM

###

tested on: HT-1197 cells; experiment: Cell-based assay: anti-proliferative activity, Cell Counting Kit-8, 72 hours (HT-1197, negative control without MELK expression); details: Homo sapiens, HT1197, 72 h, HT1197 cells (negative control, no MELK expression), 72 hours
Counter-ions that a name gives are not always drawn.
Here the recorded IC50 is given for each entry.
Write it as a number; the unit µM goes unstated.

{"columns": ["MOLECULE", "SYSTEM_TESTED", "REPORTED_VALUE"],
 "data": [
  ["CCC(=O)c1cnc2ccc(-c3cc(F)c(O)c(Cl)c3)cc2c1N[C@H]1CC[C@H](N(C)C)CC1", "HT-1197 cells", 0.76],
  ["COc1cc(-c2ccc3ncc(C(=O)C4CC4)c(NC4CCC(N5CC[C@@H](F)C5)CC4)c3c2)cc(Cl)c1O (stereo partly drawn)", "HT-1197 cells", 2.2]
]}

**Query** Answer with reported IC50 of CN1CCN(C(=O)CNc2c(C(=O)C3CC3)cnc3ccc(-c4cc(F)c(O)c(Cl)c4)cc23)CC1
**Result** 10

**Query** Answer with reported IC50 of COc1cc(-c2ccc3ncc(C(=O)C4CC4)c(Nc4ccc(CN5CCCC5)nc4)c3c2)cc(Cl)c1O
**Result** 7.3

**Query** Answer with reported IC50 of CN(C)C1CCN(Cc2ccc(Nc3c(C(=O)C4CC4)cnc4ccc(-c5cc(Cl)c(O)c(Cl)c5)cc34)cc2)C1 (stereo not drawn) [Example 695, hydrochloride]
**Result** 5.8

**Query** Answer with reported IC50 of COc1cc(-c2ccc3ncc(C(C)=O)c(Nc4ccc(CN(C)C)cc4)c3c2)cc(Cl)c1O
**Result** 4.2

**Query** Answer with reported IC50 of O=C(c1cnc2ccc(-c3cc(Cl)c(O)c(Cl)c3)cc2c1Nc1ccc(N2CCNCC2)nc1)C1CC1
**Result** 1.6

**Query** Answer with reported IC50 of COc1cc(-c2ccc3ncc(C(C)=O)c(N[C@H]4CC[C@H](CN(C)C)CC4)c3c2)cc(Cl)c1O
**Result** 10

**Query** Answer with reported IC50 of CC(=O)c1cnc2ccc(-c3cc(Cl)c(O)c(Cl)c3)cc2c1N[C@@H]1CC[C@@H](CN2CCN(C)CC2)C1
**Result** 5.7

**Query** Answer with reported IC50 of O=C(c1cnc2ccc(-c3ccc(O)c(Cl)c3)cc2c1N1CCN(CCN2CCCC2)CC1)C1CC1
**Result** 10

**Query** Answer with reported IC50 of COc1cc(-c2ccc3ncc(C(=O)C4CC4)c(-c4cnc(N5CCN(C)CC5)nc4)c3c2)cc(Cl)c1O
**Result** 4.7

**Query** Answer with reported IC50 of COc1cc(-c2ccc3ncc(C(=O)C4CC4)c(Nc4ccc(NCCO)nc4)c3c2)cc(Cl)c1O
**Result** 1.5

**Query** Answer with reported IC50 of CCC(=O)c1cnc2ccc(-c3cc(F)c(O)c(Cl)c3)cc2c1Nc1ccc(N2CCC(N)C2)nc1 (stereo not drawn)
**Result** 0.77

**Query** Answer with reported IC50 of COc1cc(-c2ccc3ncc(C(C)=O)c(Nc4ccc(N5CCC(N)C5)nc4)c3c2)cc(Cl)c1O (stereo not drawn)
**Result** 0.71

**Query** Answer with reported IC50 of CC(=O)c1cnc2ccc(-c3cc(F)c(O)c(Cl)c3)cc2c1NC1CCCN(CCN(C)C)C1 (stereo not drawn)
**Result** 6
